Assay: modulators of HCV replicon luciferase signal, primary screen, HCV replication inhibitor project, Huh7 cells, luciferase reporter (AID 1109);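 further: huh7 hepatoma cells harbouring a luciferase neomycin HCV replicon reporter; test concentration not given here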
Settings: 48 h, higher = more signal
MEASURE: z-score
Answer with the value's number alone.

Look up z-score of CCN1C(=O)[C@H]2[C@H]3[C@H](O)[C@H](O)CC(=NO[C@H](C)c4cn([C@@H]5COC[C@H]5O)nn4)[C@@H]3CC[C@H]2C1=O and report it. -0.936

Look up z-score of COC(OC)[C@@H](C)[C@H](OC)[C@@H](C)[C@H](OC)c1ccccc1 and report it. 0.928

Look up z-score of CCOC(=O)[C@H](CC(C)C)NC(=O)CCC1CC(OC(=O)NCc2ccc3c(c2)OCO3)CC2(CCCC(COC(=O)NCCOC)O2)O1 (some centres not stated) and report it. -0.322

Look up z-score of O=C1C=C[C@@H](O)[C@@H]2[C@@H]3C(=O)N(Cc4ccccc4)C(=O)[C@@H]3CC[C@@H]12 and report it. 0.493

Look up z-score of COC(=O)[C@H](C)NC(=O)CCC1CC(OC(=O)NCc2cccc3ccccc23)CC2(CCCC(COC(=O)NCCOc3ccccc3)O2)O1 (some centres not stated) and report it. -0.682

Look up z-score of O=C1[C@H]2[C@H]3[C@H](O)[C@H](O)CC(=NO[C@@H]4O[C@H](CO)[C@@H](O)[C@H](O)[C@H]4O)[C@H]3CC[C@H]2C(=O)N1c1ccc(F)cc1F and report it. 0.29

Look up z-score of CC(=O)OC[C@H]1O[C@H](CC=NO[C@@H](C)c2cn([C@H](CO)Cc3ccccc3)nn2)C=C[C@@H]1OC(C)=O and report it. -1.02
